# System: Mec-1 cells
# procedure.text: Cell growth curves over 12 days, Mec-1
# Format: cell-based
# details: Mec-1, 1 nM, day 3
Rep 2 Live Cells [Fold Change] of 7 Fold Change or higher: true (1). Under 7 Fold Change: false (0).

Worked examples follow.
{"compound": "O=C(NC[C@H](O)CN1CCc2ccccc2C1)c1cc(NC2COC2)ncn1 [EPZ015666]", "class.label": "true (1)"}
{"compound": "CON=c1nc[nH]c2c1ccn2[C@@H]1O[C@H]([C@H](O)c2ccc(Cl)c(Cl)c2)[C@@H](O)[C@H]1O.Cl [PRT382]", "class.label": "true (1)"}
{"compound": "Nc1nc2cc(CC[C@H]3C[C@@H](n4ccc5c(N)ncnc54)[C@H](O)[C@@H]3O)ccc2cc1Br [JNJ-64619178]", "class.label": "false (0)"}

Lab note: next compound to report on.
Exercise: Can Nc1ncnc2c1ccn2C1OC(C(O)c2ccc(Cl)c(F)c2)C(O)C1O (centres unmarked) [PF-06855800] be said to have Rep 2 Live Cells [Fold Change] at or above 7 Fold Change?
Solution: false (0)
